B1: NELF-E aptamer (parent)
chain: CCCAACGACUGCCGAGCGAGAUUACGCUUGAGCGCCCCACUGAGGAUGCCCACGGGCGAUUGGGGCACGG

variants of: B1; assay: HiTS-RAP; conditions: with NELF-E (Drosophila)
pKd: −log10 of the molar value.
Returns Condition met if the recorded pKd is greater than or equal to 8, and Condition not met otherwise.

The examples below pair each entry with its known result.
>>> label_class("U10G C40U")
"Condition not met"
>>> label_class("A4U G11A")
"Condition met"
>>> label_class("U22G G62A")
"Condition not met"
>>> label_class("U10G C17A")
"Condition met"
>>> label_class("U29G C49U")
"Condition not met"
>>> label_class("C9G A46U")
"Condition not met"
>>> label_class("A4U A52U")
"Condition not met"
>>> label_class("A8G")
"Condition met"

Incoming: Does U10G A21U have a reported pKd of at least 8?
Outgoing: Condition met

Incoming: Quick check, pKd >= 8? U22G C33U
Outgoing: Condition met

Source: the RNAGym collection of RNA variant scans (doi:10.1038/nmeth.2970)
